Reported values of SI for individual entries
- Test system: MERS-CoV
- protocol: microbe, parasite or virus in culture
- Assay type: cell-based

// below: answered molecules
* Cc1cccc(C[C@@H](C(=O)N[C@@H](Cc2ccccc2)C[C@H](O)[C@H](Cc2ccccc2)NC(=O)COc2c(C)cccc2C)N2CCCNC2=O)c1 [Compound 5] | 17.91
* Cc1cccc(C)c1OCC(=O)N[C@@H](Cc1ccccc1)[C@@H](O)C[C@H](Cc1ccccc1)NC(=O)[C@H](Cc1cccs1)N1CCCNC1=O [Compound 10] | 15.06
* Cc1cccc(C)c1OCC(=O)N[C@@H](Cc1ccccc1)[C@@H](O)C[C@H](Cc1ccccc1)NC(=O)[C@H](Cc1ccccc1)N1CCCNC1=O [Compound 1] | 21.74
* Cc1cccc(C)c1OCC(=O)N[C@@H](Cc1ccccc1)[C@@H](O)C[C@H](Cc1ccccc1)NC(=O)[C@H](Cc1ccc(C#N)cc1)N1CCCNC1=O [Compound 9] | 19.33
* Cc1cccc(C)c1OCC(=O)N[C@@H](Cc1ccccc1)[C@@H](O)C[C@H](Cc1ccccc1)NC(=O)[C@H](C(C)C)N1CCCNC1=O [Positive control, Lopinavir, reference compound] | 4.78

Problem: Let me know recorded SI for Cc1cccc(C)c1OCC(=O)N[C@@H](Cc1ccccc1)[C@@H](O)C[C@H](Cc1ccccc1)NC(=O)[C@H](Cc1ccc(F)cc1)N1CCCNC1=O [Compound 7] , thanks.
Result: 23.96

Problem: Quote SI reported for Cc1cccc(C)c1OCC(=O)N[C@@H](Cc1ccccc1)[C@@H](O)C[C@H](Cc1ccccc1)NC(=O)[C@H](Cc1ccc(C(F)(F)F)cc1)N1CCCNC1=O [Compound 8] please.
Result: 40.88

Problem: Supply measured SI of Cc1cccc(C)c1OCC(=O)N[C@@H](Cc1ccccc1)[C@@H](O)C[C@H](Cc1ccccc1)NC(=O)C1(N2CCCNC2=O)CCCC1 [Compound 4] in your reply.
Result: 6.53

====

Assay read-out toxicity to host cells; system under study: vero cells (ATCC CCL-81).

- Cc1cccc(C)c1OCC(=O)N[C@@H](Cc1ccccc1)[C@@H](O)C[C@H](Cc1ccccc1)NC(=O)[C@H](Cc1cccs1)N1CCCNC1=O: minimal toxicity
- Cc1cccc(C)c1OCC(=O)N[C@@H](Cc1ccccc1)[C@@H](O)C[C@H](Cc1ccccc1)NC(=O)[C@H](Cc1ccc(F)cc1)N1CCCNC1=O: minimal toxicity
- Cc1cccc(C)c1OCC(=O)N[C@@H](Cc1ccccc1)[C@@H](O)C[C@H](Cc1ccccc1)NC(=O)[C@](C)(C(C)C)N1CCCNC1=O: minimal toxicity
- Cc1cccc(C)c1OCC(=O)N[C@@H](Cc1ccccc1)[C@@H](O)C[C@H](Cc1ccccc1)NC(=O)[C@H](Cc1ccc(C#N)cc1)N1CCCNC1=O: minimal toxicity

Problem: Enter measured toxicity to host cells, system vero cells (ATCC CCL-81), for the compound shown: Cc1cccc(C)c1OCC(=O)N[C@@H](Cc1ccccc1)[C@@H](O)C[C@H](Cc1ccccc1)NC(=O)[C@@](C)(C(C)C)N1CCCNC1=O
Result: minimal toxicity

Problem: Answer briefly: toxicity to host cells recorded on vero cells (ATCC CCL-81) for Cc1cccc(C)c1OCC(=O)N[C@@H](Cc1ccccc1)[C@@H](O)C[C@H](Cc1ccccc1)NC(=O)C1(N2CCCNC2=O)CCCC1
Result: minimal toxicity

Problem: Under vero cells (ATCC CCL-81): report toxicity to host cells of Cc1cccc(C)c1OCC(=O)N[C@@H](Cc1ccccc1)[C@@H](O)C[C@H](Cc1ccccc1)NC(=O)[C@H](Cc1ccccc1)N1CCCNC1=O .
Result: minimal toxicity

Problem: Provide vero cells (ATCC CCL-81) toxicity to host cells reading for Cc1cccc(C)c1OCC(=O)N[C@@H](Cc1ccccc1)[C@@H](O)C[C@H](Cc1ccccc1)NC(=O)[C@H](Cc1ccc(C(F)(F)F)cc1)N1CCCNC1=O .
Result: minimal toxicity

Problem: Lab note: vero cells (ATCC CCL-81) assay, enter toxicity to host cells for Cc1cccc(C[C@@H](C(=O)N[C@@H](Cc2ccccc2)C[C@H](O)[C@H](Cc2ccccc2)NC(=O)COc2c(C)cccc2C)N2CCCNC2=O)c1 here
Result: minimal toxicity

====

- System: MERS-CoV
- protocol: microbe, parasite or virus in culture
- Type: cell-based
- testParameters: Middle East respiratory syndrome-related coronavirus, Vero, 24 h
endpointName: EC50 (µM)
Dear colleague, please return just the value in µM, with no unit written.

# example entries with known answers
• Cc1cccc(C)c1OCC(=O)N[C@@H](Cc1ccccc1)[C@@H](O)C[C@H](Cc1ccccc1)NC(=O)[C@H](Cc1ccc(F)cc1)N1CCCNC1=O [Compound 7] = 2.09
• Cc1cccc(C)c1OCC(=O)N[C@@H](Cc1ccccc1)[C@@H](O)C[C@H](Cc1ccccc1)NC(=O)[C@H](Cc1ccc(C(F)(F)F)cc1)N1CCCNC1=O [Compound 8] = 1.22
• Cc1cccc(C[C@@H](C(=O)N[C@@H](Cc2ccccc2)C[C@H](O)[C@H](Cc2ccccc2)NC(=O)COc2c(C)cccc2C)N2CCCNC2=O)c1 [Compound 5] = 2.79

Problem: Provide measured EC50 value, entry: Cc1cccc(C)c1OCC(=O)N[C@@H](Cc1ccccc1)[C@@H](O)C[C@H](Cc1ccccc1)NC(=O)[C@H](Cc1ccc(C#N)cc1)N1CCCNC1=O [Compound 9]
Result: 2.59

Problem: Report measured EC50; entry is Cc1cccc(C)c1OCC(=O)N[C@@H](Cc1ccccc1)[C@@H](O)C[C@H](Cc1ccccc1)NC(=O)[C@H](C(C)C)N1CCCNC1=O [Positive control, Lopinavir, reference compound]
Result: 10.5

Problem: Using the record for Cc1cccc(C)c1OCC(=O)N[C@@H](Cc1ccccc1)[C@@H](O)C[C@H](Cc1ccccc1)NC(=O)[C@H](Cc1cccs1)N1CCCNC1=O [Compound 10] , state its measured EC50.
Result: 3.32

Problem: Look up and state reported EC50 for Cc1cccc(C)c1OCC(=O)N[C@@H](Cc1ccccc1)[C@@H](O)C[C@H](Cc1ccccc1)NC(=O)C1(N2CCCNC2=O)CCCC1 [Compound 4]
Result: 7.66

Problem: Return EC50 for the following compound: Cc1cccc(C)c1OCC(=O)N[C@@H](Cc1ccccc1)[C@@H](O)C[C@H](Cc1ccccc1)NC(=O)[C@H](Cc1ccccc1)N1CCCNC1=O [Compound 1]
Result: 2.03
